assaySystem: methionyl-tRNA synthetase (Trypanosoma brucei brucei)
measurementNotes: T. brucei MetRS inhibitors, late-stage follow-up, biochemical, luminescence, dose response, round 3 (AID 1053132)
conditionNotes: recombinant T. brucei MetRS, luminescence (ATP consumption)
Activity calls are given as the source filed them. No rule for the calls is given here.
Outcome (select one): y = active, n = inactive

- smilesRecord: "CCN(CC)C(=O)C(=O)c1cn(CC(=O)Nc2cc(Oc3ccccc3OC)cc(C(F)(F)F)c2)c2ccccc12"
  assaySystem: "methionyl-tRNA synthetase (Trypanosoma brucei brucei)"
  answerLabel: "y"

Problem: # outcome recorded in this test, key = `CCN(CC)C(=O)C(=O)c1cn(CCNc2cc(Oc3ccccc3)cc(C(F)(F)F)c2)c2ccccc12`
Result: n

Problem: Which result was noted for this compound in the test: `O=C(Cn1cc(C(=O)C(=O)NCc2ccccc2)c2ccccc21)Nc1cc(Oc2ccccc2)cc(C(F)(F)F)c1`
Result: n

Problem: Which outcome was assigned to `Nc1c(Cl)ncnc1Nc1ccc(C(=O)O)cc1` in this test?
Result: y

Problem: Recorded test outcome, item `CCN(CC)C(=O)C(=O)c1cn(CC(=O)Nc2cccc(C(F)(F)F)c2)c2ccccc12`
Result: y

Problem: Which outcome did this test record for the compound `CCN(CC)C(=O)C(=O)c1cn(CC(=O)Nc2cc(Oc3ccccc3)cc(C(F)(F)F)c2)c2ccccc12` ?
Result: y
